Assign concentration at 14 day to each entry below.
assay: Clinical chemical assay (TDX) of aminoglycoside content in tissue of treated infected rats; format: in vivo; conditions: Sprague-Dawley, lung homogenate, other: intratracheal (IT); homogenized rat lungs following the 14 day experiment, 10 mg/rat; read-out: Clinical Assay
Answers are plain numbers, in ng/mL.

compound	unit-annotation	concentration at 14 day
NCC[C@H](O)C(=O)N[C@@H]1C[C@H](N)[C@@H](O[C@H]2O[C@H](CN)[C@@H](O)[C@H](O)[C@H]2O)[C@H](O)[C@H]1O[C@H]1O[C@H](CO)[C@@H](O)[C@H](N)[C@H]1O [Free amikacin, amikacin]	ng/mL	2000

Shifting focus to the compound that follows.
Request: Give its concentration at 14 day value. Item: NC[C@H]1O[C@H](O[C@H]2[C@H](O)[C@@H](O[C@H]3O[C@H](CO)[C@@H](O)[C@H](N)[C@H]3O)[C@H](N)C[C@@H]2N)[C@H](N)C[C@@H]1O [Free tobramycin, tobramycin]
Response: 1400
